assay: Single dose PK in healthy subjects (Cohorts 1, 2, S1 and S2), plasma; format: in vivo, human; conditions: human, plasma, iv, 28 mg, 28 mg single IV infusion, healthy subjects; read-out: Cmax Geo Mean
measured-endpoint: Cmax (ng/mL)
Answer with a number only, understood to be in ng/mL.

Prompt: Quick one: Cmax for COC(=O)N1CCC[C@H](NS(C)(=O)=O)[C@@H]1CO[C@H]1CC[C@@H](c2ccccc2)CC1 ?
Completion: 57.6

###

experiment: Single dose PK in healthy subjects (Cohorts 1, 2, S1 and S2), plasma; format: in vivo, human; details: human, plasma, iv, 240 mg, 240 mg single IV infusion; 2 hr; read-out: Plasma Concentration of Cmpd A, Median
measured-endpoint: concentration at 2 hr (ng/mL)
Numbers only here, please. The scale is ng/mL.

Prompt: Would you mind telling me what concentration at 2 hr value was observed for COC(=O)N1CCC[C@H](NS(C)(=O)=O)[C@@H]1CO[C@H]1CC[C@@H](c2ccccc2)CC1 [Compound A] ?
Completion: 399

###

experiment: Single dose PK in healthy subjects (Cohorts 1, 2, S1 and S2), plasma; assay type: in vivo, human; settings: human, plasma, intravenous, 180 mg; 3 hr; read-out: Plasma concentration, Mean
measured-endpoint: concentration at 3 h
In your response, the unit should come after the numeric value.

Prompt: Any idea what concentration at 3 h was measured for COC(=O)N1CCC[C@H](NS(C)(=O)=O)[C@@H]1CO[C@H]1CC[C@@H](c2ccccc2)CC1 ?
Completion: 315 ng/mL

###

assay: Single dose PK in healthy subjects (Cohorts 1, 2, S1 and S2), plasma; type: in vivo, human; details: human, plasma, iv, 180 mg, 180 mg single IV infusion, healthy subjects; read-out: AUC24 Median
From the text: […]
measured-endpoint: AUC (µg·h/mL)
Field format: number, assumed µg·h/mL, no unit text.

Prompt: Which AUC value belongs to COC(=O)N1CCC[C@H](NS(C)(=O)=O)[C@@H]1CO[C@H]1CC[C@@H](c2ccccc2)CC1 ?
Completion: 3.04

###

test: Single dose PK in patients with narcolepsy (Cohorts 5, 6 and 7), plasma; assay type: in vivo, human; conditions: human, plasma, iv, 44.8 mg; 6 hr; NT1, single 9 h IV infusion; read-out: Plasma concentration, Mean
measured-endpoint: concentration at 6 h (ng/mL)
Numeric answer only, unit ng/mL assumed.

Prompt: concentration at 6 h for COC(=O)N1CCC[C@H](NS(C)(=O)=O)[C@@H]1CO[C@H]1CC[C@@H](c2ccccc2)CC1 ?
Completion: 90

###

assay: Single dose PK in healthy subjects (Cohorts 1, 2, S1 and S2), plasma; format: in vivo, human; settings: human, plasma, iv, 134.4 mg, 134.4 mg single IV infusion, healthy subjects; read-out: CL Mean (converted)
From the text: […]
measured-endpoint: clearance (mL/min)
Answer with a number only, understood to be in mL/min.

Prompt: Recorded clearance for COC(=O)N1CCC[C@H](NS(C)(=O)=O)[C@@H]1CO[C@H]1CC[C@@H](c2ccccc2)CC1 , please?
Completion: 848

###

experiment: Single dose PK in healthy subjects (Cohorts 1, 2, S1 and S2), plasma; format: in vivo, human; conditions: human, plasma, intravenous, 240 mg; 8 hr; read-out: Plasma concentration, Q1
measured-endpoint: concentration at 8 hr (ng/mL)
Write the value in ng/mL as a bare number.

Prompt: Need concentration at 8 hr, item COC(=O)N1CCC[C@H](NS(C)(=O)=O)[C@@H]1CO[C@H]1CC[C@@H](c2ccccc2)CC1
Completion: 409
